The compounds below have reported ΔTm for Serine/threonine-protein kinase 25 (Homo sapiens) (UniProt O00506).
RECORDED_METRIC: ΔTm (°C)

1. CC(C)(C)c1cc(C=C2C(=O)C=CC2=O)cc(C(C)(C)C)c1O ... 0.6
2. O=C1Nc2ccccc2/C1=C/c1cnc[nH]1 ... 6.3
3. O=C1Nc2ccc(I)cc2/C1=C\c1cc(Br)c(O)c(Br)c1 ... 0.6
4. N#C/C(=C(/N)Sc1ccc(N)cc1)c1ccccc1C(F)(F)F ... 0
5. COc1cc(O)c2c(c1)oc(=O)c1c3cc(O)c(O)cc3oc21 [WEDELOLACTONE] ... 2.7
6. O=S(=O)(c1cccc2c(Cl)cccc12)N1CCCNCC1 ... 0.2
7. COc1cc(/C=C/C(=O)CC(=O)/C=C/c2ccc(O)c(OC)c2)ccc1O [CURCUMIN] ... 4.4
8. CC(C)N(CCO)c1nc(Nc2cccc(Cl)c2)c2ncn(C(C)C)c2n1 ... 3.4
9. NC1=NC(=O)/C(=C2\CCNC(=O)c3[nH]c(Br)cc32)N1 [HYMENIALDISINE] ... 3.5
10. O=C1Nc2ccc(S(=O)(=O)O)cc2/C1=C1/Nc2ccccc2/C1=N\O ... 2.2
11. C/C(O)=C(\C#N)C(=O)Nc1cc(Br)ccc1Br ... -0.1

====

Biological target: Casein kinase I isoform gamma-1 (Homo sapiens) (UniProt Q9HCP0)
Sequence (Q9HCP0 whole entry, looked up, canonical isoform): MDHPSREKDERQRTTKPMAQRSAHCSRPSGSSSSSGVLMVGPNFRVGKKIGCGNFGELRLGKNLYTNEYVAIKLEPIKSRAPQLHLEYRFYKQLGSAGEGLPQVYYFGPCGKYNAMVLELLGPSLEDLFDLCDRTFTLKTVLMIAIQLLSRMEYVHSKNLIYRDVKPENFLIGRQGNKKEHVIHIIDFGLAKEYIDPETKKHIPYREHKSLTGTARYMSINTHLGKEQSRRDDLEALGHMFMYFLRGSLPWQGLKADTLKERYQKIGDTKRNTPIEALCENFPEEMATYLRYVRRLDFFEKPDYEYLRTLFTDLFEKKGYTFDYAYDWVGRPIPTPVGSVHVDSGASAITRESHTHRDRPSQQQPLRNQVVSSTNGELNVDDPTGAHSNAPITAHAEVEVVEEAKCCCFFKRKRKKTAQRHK
Classify by measured ΔTm: Condition met if it is equal to or exceeds 0.6 °C, Condition not met if it is smaller.

1) O=C1Nc2ccc(I)cc2/C1=C\c1cc(Br)c(O)c(Br)c1 ... Condition not met
2) Cn1cc(/C=C2/C(=O)Nc3ccc(S(N)(=O)=O)cc32)c2ccccc21 ... Condition not met
3) O=c1cc(N2CCOCC2)oc2c1ccc1ccccc12 ... Condition not met
4) COc1cc(O)c2c(c1)oc(=O)c1c3cc(O)c(O)cc3oc21 ... Condition met
5) O=C1Nc2ccccc2/C1=C1/Nc2ccccc2/C1=N\O ... Condition met
6) CC(C)[C@H](CO)Nc1nc(Nc2cc(N)cc(Cl)c2)c2ncn(C(C)C)c2n1 ... Condition met
7) CC(C)n1cnc2c(NCc3ccccc3O)nc(NCCCO)nc21 ... Condition not met
8) NCCNc1ncc(C(N)=O)c(Nc2cccc(C(F)(F)F)c2)n1 ... Condition met
9) CC(C)c1nn(-c2c(Cl)cccc2Cl)c2nc(Cc3ccc(OCCO)cc3)[nH]c(=O)c12 ... Condition not met
10) O=C1NC(=O)c2c1c1c3ccccc3[nH]c1n1cncc21 [ISOGRANULATIMIDE] ... Condition met
11) CC(C)n1cnc2/c(=N/c3cccc(Cl)c3)nc(NCCO)[nH]c21 ... Condition met
12) CN1CCC(Nc2ncc3ncnc(Nc4ccc(F)c(Cl)c4)c3n2)CC1 ... Condition not met
13) C[S+]([O-])c1ccc(CSc2nc(-c3ccc(F)cc3)c(-c3ccncc3)[nH]2)cc1 (stereo unspecified) ... Condition not met
14) O=C1Cc2c([nH]c3ccc([N+](=O)[O-])cc23)-c2ccccc2N1 ... Condition met
15) COc1ccc(CNc2nc(N(CCO)CCO)nc3c2ncn3C(C)C)cc1 ... Condition met
16) C/C(O)=C(\C#N)C(=O)Nc1cc(Br)ccc1Br ... Condition met
17) N#C/C(=C\c1ccc(O)c(O)c1)C(=O)Nc1ccccc1 ... Condition met
18) Cc1nc(Nc2ncc(C(=O)Nc3c(C)cccc3Cl)s2)cc(N2CCN(CCO)CC2)n1 ... Condition not met

====

Target: UniProt:P35916
Sequence (P35916 whole entry): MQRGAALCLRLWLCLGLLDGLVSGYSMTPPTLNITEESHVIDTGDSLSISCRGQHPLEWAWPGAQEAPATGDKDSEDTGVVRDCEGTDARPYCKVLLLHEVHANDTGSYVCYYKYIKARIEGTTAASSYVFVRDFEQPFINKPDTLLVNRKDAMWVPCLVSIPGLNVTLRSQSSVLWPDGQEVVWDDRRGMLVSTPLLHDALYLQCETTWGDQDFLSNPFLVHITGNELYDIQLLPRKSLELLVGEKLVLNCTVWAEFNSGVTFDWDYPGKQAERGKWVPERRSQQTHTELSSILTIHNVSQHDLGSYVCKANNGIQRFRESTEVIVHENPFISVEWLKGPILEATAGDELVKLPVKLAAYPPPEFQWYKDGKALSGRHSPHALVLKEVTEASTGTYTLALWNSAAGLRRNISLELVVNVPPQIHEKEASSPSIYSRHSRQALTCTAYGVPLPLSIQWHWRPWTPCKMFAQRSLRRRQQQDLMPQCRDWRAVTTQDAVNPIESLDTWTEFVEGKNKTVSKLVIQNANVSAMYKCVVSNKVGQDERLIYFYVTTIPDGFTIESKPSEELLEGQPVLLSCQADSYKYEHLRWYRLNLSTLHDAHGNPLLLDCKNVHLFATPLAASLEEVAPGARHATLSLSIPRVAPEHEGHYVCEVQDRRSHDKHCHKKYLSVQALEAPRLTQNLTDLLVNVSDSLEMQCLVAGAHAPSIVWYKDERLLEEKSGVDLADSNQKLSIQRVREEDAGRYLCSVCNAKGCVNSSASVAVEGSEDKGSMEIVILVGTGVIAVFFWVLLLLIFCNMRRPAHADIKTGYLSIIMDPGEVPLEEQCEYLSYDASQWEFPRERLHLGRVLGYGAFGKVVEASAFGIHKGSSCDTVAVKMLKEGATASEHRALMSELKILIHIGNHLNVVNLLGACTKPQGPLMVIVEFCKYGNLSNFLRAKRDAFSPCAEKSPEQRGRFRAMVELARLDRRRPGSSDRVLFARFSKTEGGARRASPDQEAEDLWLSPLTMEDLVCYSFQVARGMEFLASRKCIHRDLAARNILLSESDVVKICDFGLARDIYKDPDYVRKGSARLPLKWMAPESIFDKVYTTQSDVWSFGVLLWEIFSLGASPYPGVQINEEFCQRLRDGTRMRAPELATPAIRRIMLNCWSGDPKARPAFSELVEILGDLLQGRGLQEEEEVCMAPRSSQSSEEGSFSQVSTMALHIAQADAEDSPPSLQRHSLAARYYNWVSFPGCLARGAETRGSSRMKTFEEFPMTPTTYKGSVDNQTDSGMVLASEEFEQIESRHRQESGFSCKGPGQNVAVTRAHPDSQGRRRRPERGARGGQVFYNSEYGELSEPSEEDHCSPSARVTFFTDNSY
RECORDED_METRIC: IC50

1. N#CCCc1ccc2c(c1)-c1[nH]c3ccc([N+](=O)[O-])cc3c1CC(=O)N2 ... 1 µM

====

Target: Serine/threonine-protein kinase Chk2 (Homo sapiens)
Sequence (O96017 whole entry): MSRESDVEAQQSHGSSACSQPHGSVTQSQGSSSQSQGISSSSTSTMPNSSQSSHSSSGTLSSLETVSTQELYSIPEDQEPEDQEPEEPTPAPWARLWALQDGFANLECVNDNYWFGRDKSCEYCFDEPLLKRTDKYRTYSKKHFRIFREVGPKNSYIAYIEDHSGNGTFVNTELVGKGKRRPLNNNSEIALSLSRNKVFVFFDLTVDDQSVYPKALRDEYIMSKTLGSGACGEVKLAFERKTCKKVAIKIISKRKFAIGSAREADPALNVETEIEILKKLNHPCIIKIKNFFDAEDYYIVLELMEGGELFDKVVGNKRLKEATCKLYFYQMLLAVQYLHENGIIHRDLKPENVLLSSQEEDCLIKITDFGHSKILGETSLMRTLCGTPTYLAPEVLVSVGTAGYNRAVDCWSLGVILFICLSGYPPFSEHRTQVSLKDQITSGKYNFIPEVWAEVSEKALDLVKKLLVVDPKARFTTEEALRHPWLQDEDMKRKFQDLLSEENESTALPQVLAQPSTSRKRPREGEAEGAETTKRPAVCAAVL
The following ranges of ΔTm define the classes used here: low = under 0.5 °C, middle = from 0.5 °C up to 2 °C, high = 2 °C and over

1. CC(C)[C@H](CO)Nc1nc(Nc2cc(N)cc(Cl)c2)c2ncn(C(C)C)c2n1 [AMINOPURVALANOL] ... high
2. CN(C)CCCn1cc(C2=C(c3c[nH]c4ccccc34)C(=O)NC2=O)c2ccccc21 [GF-109203] ... high
3. O=C(O)Cc1ccc(O)c([N+](=O)[O-])c1 ... low
4. CCOc1cc(/C=C(\C#N)C(N)=O)cc(CSc2ccccc2)c1O ... low
5. O=Nc1c(-c2c(O)[nH]c3ccccc23)[nH]c2ccccc12 ... high
6. O=C1NC(=O)C(c2cn(CCCn3ccnc3)c3ccccc23)=C1Nc1ccccc1 ... middle
7. Nc1cc2ncnc(Nc3cccc(Br)c3)c2cc1N ... middle
8. O=C(Nc1cccc(Nc2cc(Nc3cccc(C(F)(F)F)c3)ncn2)c1)C1CC1 ... high
9. Clc1ccc(Nc2nnc(Cc3ccncc3)c3ccccc23)cc1 ... low

====

Biological target: Serine/threonine-protein kinase RIO2 (Homo sapiens)
Could you please mark fulfilled for values of ΔTm below 0.1 °C and not fulfilled for values at or above it?

1) CN[C@@H]1CC2O[C@@](C)([C@@H]1OC)n1c3ccccc3c3c4c(c5c6ccccc6n2c5c31)C(=O)NC4 ... not fulfilled
2) CCCCc1c(-c2ccc(O)cc2)[nH]c2nccnc12 ... fulfilled
3) N#C/C(=C(/N)Sc1ccc(N)cc1)c1ccccc1C(F)(F)F ... fulfilled
4) Cn1cc(C2=C(c3cn(CCCN)c4ccccc34)C(=O)NC2=O)c2ccccc21 ... not fulfilled
5) O=C1Nc2ccccc2/C1=C1/Nc2ccccc2/C1=N\O ... not fulfilled
6) Nc1ncnc2c1c(I)cn2[C@@H]1O[C@H](CO)[C@@H](O)[C@H]1O ... not fulfilled
7) O=c1c(-c2ccc(F)cc2)c(-c2ccncc2)[nH]n1-c1ccc(Cl)cc1 ... fulfilled
8) Cc1c2ccncc2c(C)c2c1[nH]c1ccccc12 ... not fulfilled
9) O=c1cc(N2CCOCC2)oc2c1ccc1ccccc12 ... not fulfilled
10) COC1=C2C[C@@H](C)C[C@H](OC)[C@H](O)[C@@H](C)/C=C(\C)[C@H](OC(N)=O)[C@@H](OC)/C=C\C=C(/C)C(=O)NC(=CC1=O)C2=O ... fulfilled
11) COc1ccc(CNC(=O)Nc2ncc([N+](=O)[O-])s2)cc1 ... not fulfilled
12) O=C1Nc2ccc(S(=O)(=O)O)cc2/C1=C1/Nc2ccccc2/C1=N\O ... not fulfilled
13) COc1nccc(-c2c(-c3ccc(F)cc3)ncn2[C@H]2CC[C@H](O)CC2)n1 ... fulfilled
14) Nc1cccc(-c2cc3c(Oc4cccc(O)c4)ncnc3[nH]2)c1 ... not fulfilled
15) COc1ccc2c(c[n+](C)c3c4cc5c(cc4ccc23)OCO5)c1OC [CHELERYTHRINE CHLORIDE] ... fulfilled
16) C[C@@H]1C[C@H]2O[C@@H]2/C=C\C=C\C(=O)Cc2c(Cl)c(O)cc(O)c2C(=O)O1 ... fulfilled
17) O=C1Nc2ccccc2/C1=C/c1cnc[nH]1 ... not fulfilled
18) CCN1/C(=C/C(C)=O)Sc2ccc(OC)cc21 ... fulfilled
19) O=C(O)Cc1ccc(O)c([N+](=O)[O-])c1 ... fulfilled
20) CCOc1cc2ncnc(Nc3cccc(Br)c3)c2cc1OCC ... not fulfilled
21) Oc1cc(O)cc(/C=C/c2ccc(O)c(O)c2)c1 ... not fulfilled
22) Cc1ccc(NC(=O)c2cccc(N(C)C)c2)cc1NC(=O)c1ccc(O)cc1 ... not fulfilled
23) O=c1cc(N2CCOCC2)oc2c(-c3ccccc3)cccc12 ... not fulfilled
24) O=C1Nc2cc(Br)ccc2/C1=C1/Nc2ccccc2/C1=N\O ... not fulfilled
25) CCN(CC)CCNC(=O)c1c(C)[nH]c(/C=C2\C(=O)Nc3ccc(F)cc32)c1C ... not fulfilled
26) COc1ccc(CNc2nc(N(CCO)CCO)nc3c2ncn3C(C)C)cc1 ... not fulfilled
27) Nc1nc(Nc2ccc(S(N)(=O)=O)cc2)nn1C(=S)Nc1c(F)cccc1F ... fulfilled
28) NCCNc1ncc(C(N)=O)c(Nc2cccc(C(F)(F)F)c2)n1 ... not fulfilled
29) NC1=N/C(=C2/CCNC(=O)c3[nH]ccc32)C(=O)N1 ... fulfilled
30) Nc1cc2ncnc(Nc3cccc(Br)c3)c2cc1N ... not fulfilled
31) CN(C)C[C@@H]1CCn2cc(c3ccccc32)C2=C(C(=O)NC2=O)c2cn(c3ccccc23)CCO1 ... not fulfilled
32) COc1cc2ncnc(Nc3ccc(NC(=O)c4ccccc4)cc3)c2cc1OC ... not fulfilled
33) Cc1ccc(NC2=CC(=O)c3sc(C)nc3C2=O)cc1 ... not fulfilled
34) O=c1c2ccccc2[nH]c(=S)n1CCN1CCC(=C(c2ccc(F)cc2)c2ccc(F)cc2)CC1 ... not fulfilled
35) COc1ccc2c(c1)/C(=C/c1cnc[nH]1)C(=O)N2 ... not fulfilled
36) O=C1c2ccccc2-[n+]2ccc3c([nH]c4ccccc43)c21 [FASCAPLYSIN CHLORIDE] ... fulfilled
37) C/C(O)=C(\C#N)C(=O)Nc1cc(Br)ccc1Br ... not fulfilled
38) Cc1nc(N)sc1-c1ccnc(Nc2cccc([N+](=O)[O-])c2)n1 ... not fulfilled
39) O=C1c2ccccc2-c2n[nH]c3cccc1c23 ... not fulfilled
